- assaySystem: human vasopressin V1a receptor (Homo sapiens)
- Sequence (P37288 whole entry): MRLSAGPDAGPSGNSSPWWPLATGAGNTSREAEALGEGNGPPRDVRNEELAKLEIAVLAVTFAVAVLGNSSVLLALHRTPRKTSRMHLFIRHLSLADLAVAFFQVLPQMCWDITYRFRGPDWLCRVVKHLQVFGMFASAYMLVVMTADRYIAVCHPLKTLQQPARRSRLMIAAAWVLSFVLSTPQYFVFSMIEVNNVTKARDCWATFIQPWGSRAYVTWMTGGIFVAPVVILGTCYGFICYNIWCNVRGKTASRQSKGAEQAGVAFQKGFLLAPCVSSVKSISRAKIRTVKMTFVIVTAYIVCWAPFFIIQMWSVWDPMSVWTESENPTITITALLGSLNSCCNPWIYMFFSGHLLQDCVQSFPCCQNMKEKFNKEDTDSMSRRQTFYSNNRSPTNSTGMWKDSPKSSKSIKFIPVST
- experimentNotes: Receptor binding study, [3H]AVP displacement on CHO cell membranes, human V1a
- appliedConditions: [3H]AVP displacement, CHO cell membrane, 25° C., one hour; read-out: Human V1a Ki
Assignment: determine reported Ki for the given compounds.

- compound: "CCCCN(CC)CCCOc1cc(C(=O)N2CC[C@H](C)Nc3ccccc32)ccc1-c1ccc2[nH]ccc2c1"
  reportedValue: "0.37 nM"
- compound: "C[C@H]1CCN(C(=O)c2ccc(-c3ccc4[nH]ccc4c3)c(NS(C)(=O)=O)c2)c2ccccc2N1"
  reportedValue: "0.23 nM"

Record Ki for all entries; do not skip any.
1. C[C@H]1CCN(C(=O)c2ccc(-c3ccc4[nH]ccc4c3)c(OCCCN)c2)c2ccccc2N1
2. C[C@H]1CCN(C(=O)c2ccc(-c3ccc4[nH]ccc4c3)c(OCCCN3CCC(NC=O)CC3)c2)c2ccccc2N1
3. CC1CCN(C(=O)c2ccc(-c3ccc4[nH]ccc4c3)c(OCCCNC(=O)CN)c2)c2ccccc2N1 (stereo not shown)
4. C[C@H]1CCN(C(=O)c2ccc(-c3ccc4[nH]ccc4c3)c(OCCCN3C(=O)CSC3=O)c2)c2ccccc2N1
5. CCCN(C)CCCCOc1cc(C(=O)N2CC[C@H](C)Nc3ccccc32)ccc1-c1ccc(NCC)cc1

Reply:
1. 0.086 nM
2. 0.086 nM
3. 0.13 nM
4. 0.46 nM
5. 0.19 nM
